target: Acetylcholinesterase (Electrophorus electricus, UniProt O42275); assay: Inhibition of electrophorus electricus AChE
Sequence (O42275 whole entry): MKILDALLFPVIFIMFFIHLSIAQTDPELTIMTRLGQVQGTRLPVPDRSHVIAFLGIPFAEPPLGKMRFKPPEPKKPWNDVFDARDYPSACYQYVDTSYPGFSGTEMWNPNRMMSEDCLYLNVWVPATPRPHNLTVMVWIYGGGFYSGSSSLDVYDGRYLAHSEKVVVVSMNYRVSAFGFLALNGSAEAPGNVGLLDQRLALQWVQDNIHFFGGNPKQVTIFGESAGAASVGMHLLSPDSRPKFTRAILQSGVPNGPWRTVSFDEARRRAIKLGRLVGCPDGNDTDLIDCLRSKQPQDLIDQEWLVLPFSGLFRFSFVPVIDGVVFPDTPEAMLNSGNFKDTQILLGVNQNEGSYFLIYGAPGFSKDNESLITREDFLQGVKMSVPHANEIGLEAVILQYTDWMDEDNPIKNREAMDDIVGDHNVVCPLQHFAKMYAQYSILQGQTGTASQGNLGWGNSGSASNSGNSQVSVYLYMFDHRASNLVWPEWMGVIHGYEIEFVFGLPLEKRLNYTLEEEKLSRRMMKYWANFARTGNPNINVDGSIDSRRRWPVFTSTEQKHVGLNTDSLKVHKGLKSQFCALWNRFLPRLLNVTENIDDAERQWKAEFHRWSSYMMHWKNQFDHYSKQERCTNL
Reported pIC50 by item:
Give only the number. pIC50 is defined as minus log10 of concentration in molar units.

IN: Kindly indicate its recorded pIC50. Item: Cl.O=C1N(CC2CCNCC2)c2ccccc2C1(O)c1ccccc1 (racemic)
OUT: 3.30

IN: Kindly indicate its recorded pIC50. Item: O=C1N(Cc2ccccc2)c2ccccc2C1(O)c1ccccc1 (racemic)
OUT: 3.62

IN: Kindly indicate its recorded pIC50. Item: O=C1N(CC2CCN(Cc3ccccc3)CC2)c2ccccc2C1(O)c1ccccc1 (racemic)
OUT: 3.71

----------
Reported mortality at 24 h, 1000 ug/mL by item:
experiment: Toxicity against Artemia salina larvae assessed as larval mortality at 1000 ug/mL after 24 hrs relative to control; assay type: organism-based; settings: in vivo, at 1000 µg/mL
Answer as a quantity: numeral, then unit.

INSERT INTO assay_data (compound, readout_value) VALUES
  ('Cl.O=C1N(CC2CCNCC2)c2ccccc2C1(O)c1ccccc1 (racemic)', '5%');

IN: Kindly indicate its recorded mortality at 24 h, 1000 ug/mL. Item: COc1cc2c(cc1OC)C(=O)C(CC1CCN(Cc3ccccc3)CC1)C2 (configuration not stated) [DONEPEZIL]
OUT: 26%

The measured values listed here are drawn from ChEMBL document CHEMBL4308913.
